Biological target: PI3Kγ (Homo sapiens, UniProt P48736)
Construct: host or cells: THP-1
Sequence (P48736 whole entry): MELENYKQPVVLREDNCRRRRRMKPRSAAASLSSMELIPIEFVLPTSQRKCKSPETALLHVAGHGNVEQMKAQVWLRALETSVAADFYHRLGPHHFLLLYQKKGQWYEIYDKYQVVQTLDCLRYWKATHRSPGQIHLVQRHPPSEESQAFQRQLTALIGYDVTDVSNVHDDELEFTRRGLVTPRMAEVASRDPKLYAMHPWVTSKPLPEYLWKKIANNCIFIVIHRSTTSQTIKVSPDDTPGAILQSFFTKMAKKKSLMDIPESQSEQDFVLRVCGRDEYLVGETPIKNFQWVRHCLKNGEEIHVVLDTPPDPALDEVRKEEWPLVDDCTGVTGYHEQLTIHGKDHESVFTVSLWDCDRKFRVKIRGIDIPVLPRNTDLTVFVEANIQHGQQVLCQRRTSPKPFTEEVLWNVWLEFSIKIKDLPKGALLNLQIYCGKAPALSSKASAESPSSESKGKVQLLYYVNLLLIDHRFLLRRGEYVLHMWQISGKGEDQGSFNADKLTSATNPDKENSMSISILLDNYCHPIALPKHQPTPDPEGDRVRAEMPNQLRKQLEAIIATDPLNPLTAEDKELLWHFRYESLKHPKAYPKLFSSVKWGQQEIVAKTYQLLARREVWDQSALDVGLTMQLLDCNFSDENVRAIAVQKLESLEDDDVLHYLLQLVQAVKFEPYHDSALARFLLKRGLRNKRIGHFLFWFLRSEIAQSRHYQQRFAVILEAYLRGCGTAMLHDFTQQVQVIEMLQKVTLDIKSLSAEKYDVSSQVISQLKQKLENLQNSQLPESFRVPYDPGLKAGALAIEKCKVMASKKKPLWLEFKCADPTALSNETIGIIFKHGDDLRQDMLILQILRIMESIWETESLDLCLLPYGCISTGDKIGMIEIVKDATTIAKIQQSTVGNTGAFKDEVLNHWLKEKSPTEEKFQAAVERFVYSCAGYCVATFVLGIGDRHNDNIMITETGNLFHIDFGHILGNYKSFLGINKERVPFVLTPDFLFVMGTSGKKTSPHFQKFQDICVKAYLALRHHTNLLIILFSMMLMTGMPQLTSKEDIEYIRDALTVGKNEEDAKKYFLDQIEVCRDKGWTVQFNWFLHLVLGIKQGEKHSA
Assay: PI3Kγ cellular assay in THP-1 cells (AKT pS473 AlphaLISA)
Type: cell-based
Conditions: Table 2, rhMCP-1 stimulated AKT pS473, read-out: cellular potency (PI3Kγ IC50)
ATTRIBUTE_MEASURED: IC50

Recorded IC50, per entry:
[
  {
    "COMPOUND": "Cc1cc(-c2ccn3nc(N)c(C(=O)N4CCOCC4)c3n2)cc2c1C(=O)N(C(C)C1CC1)C2 (stereo not shown) [Example 280]",
    "IC50": "> 1 µM"
  },
  {
    "COMPOUND": "CC[C@H](CO)N1Cc2cc(-c3ccn4nc(N)c(C(=O)NC5CC5)c4n3)cc(C)c2C1=O [Example 308]",
    "IC50": "0.1 to 1 µM"
  },
  {
    "COMPOUND": "Cc1cc(-c2ccn3nc(N)c(C(=O)N[C@H]4CC[C@H](O)CC4)c3n2)cc2c1C(=O)N([C@@H](C)C1CC1)C2 [Example 172]",
    "IC50": "0.1 to 1 µM"
  }
]

Please examine the following record next.
Q) # IC50 lookup, item Cc1cc(-c2ccn3nc(N)c(C(=O)N[C@@H](CO)C4CC4)c3n2)cc2c1C(=O)N([C@@H](C)C1CC1)C2 [Example 195]
A) 0.1 to 1 µM

====

Molecular target: PI3Kγ (p120γ) (Homo sapiens, UniProt P48736)
Construct: purchased Promega V1761
Sequence (P48736 whole entry): as above
Assay: Inhibition of PI3K kinase activity (ADP Glo), PI3Kγ
Conditions: Table 2, p120γ, read-out: biochemical potency (PI3Kγ IC50)
Measured IC50 accompanies every entry in the list below.

[
  {
    "COMPOUND": "Cc1cc(-c2ccn3nc(N)c(C(=O)NC4(C(C)O)CC4)c3n2)cc2c1C(=O)N([C@@H](C)C1CC1)C2 (some centres unmarked)",
    "TARGET_OR_TEST_SYSTEM": "PI3Kγ (p120γ) (Homo sapiens, UniProt P48736)",
    "IC50": "< 100 nM"
  },
  {
    "COMPOUND": "Cc1cc(-c2ccn3nc(N)c(C(=O)N[C@H](C)c4ccccc4F)c3n2)cc2c1C(=O)N(C(C)(C)CO)C2",
    "TARGET_OR_TEST_SYSTEM": "PI3Kγ (p120γ) (Homo sapiens, UniProt P48736)",
    "IC50": "< 100 nM"
  }
]

Q) # IC50 lookup, item "Cc1cc(-c2ccn3nc(N)c(C(=O)N[C@@H]4CCOc5ccccc54)c3n2)cc2c1C(=O)N([C@@H](C)C1CC1)C2"
A) < 100 nM

Q) # IC50 lookup, item "Cc1cc(-c2ccn3nc(N)c(C(=O)NC4CC4)c3n2)cc2c1C(=O)N([C@H]1CC[C@@H](O)C1)C2"
A) < 100 nM

Q) # IC50 lookup, item "CCNC(=O)c1c(N)nn2ccc(-c3cc(C)c4c(c3)CN([C@@H](C)C3CC3)C4=O)nc12"
A) < 100 nM

Q) # IC50 lookup, item "CCn1cc(NC(=O)c2c(N)nn3ccc(-c4cc(C)c5c(c4)CN([C@@H](C)C4CC4)C5=O)nc23)cn1"
A) < 100 nM

Q) # IC50 lookup, item "Cc1cc(-c2ccn3nc(N)c(C(=O)NCC(N)=O)c3n2)cc2c1C(=O)N([C@@H](C)C1CC1)C2"
A) < 100 nM

Q) # IC50 lookup, item "Cc1cc(-c2ccn3nc(N)c(C(=O)N[C@H](C)CN)c3n2)cc2c1C(=O)N([C@@H](C)C1CC1)C2"
A) < 100 nM

====

Target: PI3Kγ (Homo sapiens, UniProt P48736)
Construct: host or cells: THP-1
Experiment: PI3Kγ cellular assay in THP-1 cells (AKT pS473 AlphaLISA)
Format: cell-based
Conditions: Table 2, rhMCP-1 stimulated AKT pS473, read-out: cellular potency (PI3Kγ IC50)
pIC50: −log10 of the molar value.
ATTRIBUTE_MEASURED: pIC50

[
  {
    "COMPOUND": "Cc1cc(-c2ccn3nc(N)c(C(=O)NC4(CO)CC4)c3n2)cc2c1C(=O)N([C@@H](C)C1CC1)C2 [Example 246]",
    "TARGET_OR_TEST_SYSTEM": "PI3Kγ (Homo sapiens, UniProt P48736)",
    "pIC50": "6.00 to 7.00"
  },
  {
    "COMPOUND": "Cc1cc(-c2ccn3nc(N)c(C(=O)N[C@@H](CO)CC(C)C)c3n2)cc2c1C(=O)N([C@@H](C)C1CC1)C2 [Example 267]",
    "TARGET_OR_TEST_SYSTEM": "PI3Kγ (Homo sapiens, UniProt P48736)",
    "pIC50": "6.00 to 7.00"
  }
]

Q) # pIC50 lookup, item Cc1cc(-c2ccn3nc(N)c(C(=O)NC4CC4)c3n2)cc2c1C(=O)N([C@H](C)c1ccncc1)C2 [Example 331]
A) < 6.00

Q) # pIC50 lookup, item Cc1cc(-c2ccn3nc(N)c(C(=O)NC4CC4)c3n2)cc2c1C(=O)N([C@@H]1CCC[C@H](O)C1)C2 [Example 324]
A) 6.00 to 7.00

====

Measured IC50 accompanies every entry in the list below.
Target: PI3Kγ (Homo sapiens)
Construct: host or cells: THP-1
Test: PI3Kγ cellular assay in THP-1 cells (AKT pS473 AlphaLISA)
Format: cell-based
Conditions: Table 2, rhMCP-1 stimulated AKT pS473, read-out: cellular potency (PI3Kγ IC50)
Procedure: Twenty microliters of serum starved THP-1 cells were added to the compound plate in serum free DMEM at a density of 9×10^6 cells per ml. […] PI3Kγ activity was evaluated as a correlate of endogenous AKT phosphorylation levels. Percentage maximum activity in each test well was calculated based on DMSO (100% activity) and positive control treated cell wells (0% activity). The potencies (IC50's) of test compounds were determined using a standard 4-parameter fit non-linear regression fit.

Recorded IC50, per entry:
[
  {
    "MOLECULE": "Cc1cc(-c2ccn3nc(N)c(C(=O)N[C@@H]4CCOc5ccccc54)c3n2)cc2c1C(=O)N([C@@H](C)C1CC1)C2",
    "IC50": "> 1 µM"
  },
  {
    "MOLECULE": "Cc1cc(-c2ccn3nc(N)c(C(=O)NCC(N)=O)c3n2)cc2c1C(=O)N([C@@H](C)C1CC1)C2",
    "IC50": "0.1 to 1 µM"
  }
]

Please examine the following record next.
Q) # IC50 lookup, item "Cc1cc(-c2ccn3nc(N)c(C(=O)N[C@@H]4CCNC4=O)c3n2)cc2c1C(=O)N([C@@H](C)C1CC1)C2"
A) 0.1 to 1 µM

====

Measured IC50 accompanies every entry in the list below.
Target: PI3Kγ (Homo sapiens, UniProt P48736)
Construct: host or cells: THP-1
Test: PI3Kγ cellular assay in THP-1 cells (AKT pS473 AlphaLISA)
Type: cell-based
Details: Table 3, rhMCP-1 stimulated AKT pS473, read-out: cellular potency (PI3Kγ IC50)

Recorded IC50, per entry:
[
  {
    "ITEM_SMILES": "C[C@@H](C1CC1)N1Cc2cc(-c3ccn4nc(N)c(C(=O)N[C@H]5CNC[C@H]5O)c4n3)cc(C(F)(F)F)c2C1=O",
    "TARGET_OR_TEST_SYSTEM": "PI3Kγ (Homo sapiens, UniProt P48736)",
    "RESULT": "> 1000 nM"
  },
  {
    "ITEM_SMILES": "C[C@@H](C1CC1)N1Cc2cc(-c3ccn4nc(N)c(C(=O)NC[C@H](O)CO)c4n3)cc(C(F)(F)F)c2C1=O",
    "TARGET_OR_TEST_SYSTEM": "PI3Kγ (Homo sapiens, UniProt P48736)",
    "RESULT": "100 to 1000 nM"
  }
]

Q) # IC50 lookup, item "C[C@@H](C1CC1)N1Cc2cc(-c3ccn4nc(N)c(C(=O)NC(C)(C)CO)c4n3)cc(C(F)(F)F)c2C1=O"
A) 100 to 1000 nM

====

Molecular target: PI3Kγ (p120γ) (Homo sapiens, UniProt P48736)
Construct: purchased Promega V1761
Test: Inhibition of PI3K kinase activity (ADP Glo), PI3Kγ
Details: Table 1, p120γ, read-out: biochemical potency (PI3Kγ IC50)
Measured IC50 accompanies every entry in the list below.

[
  {
    "MOLECULE": "C[C@H](CO)NC(=O)c1c(N)nn2ccc(-c3cc4c(c(C5CC5)c3)C(=O)N([C@@H](C)C3CC3)C4)nc12 [Example 166]",
    "IC50": "< 100 nM"
  },
  {
    "MOLECULE": "CNC(=O)c1c(N)nn2ccc(-c3cc4c(c(NS(C)(=O)=O)c3)C(=O)N([C@@H](C)C3CC3)C4)nc12 [Example 73]",
    "IC50": "< 100 nM"
  }
]

Please examine the following record next.
Q) # IC50 lookup, item CC(C)[C@H](CO)NC(=O)c1c(N)nn2ccc(-c3cc4c(c(OC(F)(F)F)c3)C(=O)N([C@@H](C)C3CC3)C4)nc12 [Example 25]
A) < 100 nM
